# System: HCC-2998 colon
# EXPERIMENT_SUMMARY: NCI-60 one-dose screen, 48 h (100 = growth as untreated, 0 = no growth, -100 = all killed)
# CONDITION_INFO: 10 µM unless noted
Compounds without any hit were thinned out: in the full panel of roughly 83,000, 20% have a hit.
Overview of recorded growth for various compounds
MEASURE: growth (%)

INSERT INTO measurements (compound, measure_unit, obs_value) VALUES
  ('O=C(CCCCCCN1CC(=O)N2[C@@H](C3CCCCC3)c3[nH]c4ccccc4c3C[C@H]2C1=O)NO', '%', 94),
  ('COC(=O)c1nc(-c2ccccc2)oc1S(=O)(=O)N1CCC(C(N)=O)CC1', '%', 104),
  ('CCOC(=O)Nc1nc2ccc(SCC(C)C)cc2s1', '%', 75),
  ('N#C/C(=C\c1ccc(Br)cc1)c1cc2ccccc2[nH]1', '%', 101),
  ('Cc1c2cc[nH]c(=O)c2c(C)c2c1[nH]c1ccc(OC(=O)c3ccccc3)cc12', '%', 57.7),
  ('COc1ccc(C(c2cc(OC)c(OC)c(OC)c2)N2CCCC2)cc1 (centres undefined)', '%', 89.1),
  ('C=CCN=C(N)SCCCCCCSC(N)=NCC=C', '%', 93.1),
  ('CCN(CC)CCOc1nc2c3ccc(Cl)cc3nn2c2ccccc12', '%', 15.4),
  ('O=C(O)CCCc1cnc2c3sccc3nc(SCc3c(Cl)cccc3Cl)n12', '%', 81.1);

###

Each entry below carries its recorded growth.
# Test system: OVCAR-4 ovarian
# EXPERIMENT_SUMMARY: NCI-60 one-dose screen, 48 h (100 = growth as untreated, 0 = no growth, -100 = all killed)
# CONDITION_INFO: 10 µM unless noted
Compounds without any hit were thinned out: in the full panel of roughly 83,000, 20% have a hit.
MEASURE: growth (%)

INSERT INTO results (compound, tgt, obs_value) VALUES
  ('O=C1Nc2ccccc2/C1=C/c1cn(C[C@@H](O)Cn2c3ccccc3c(=O)c3ccccc32)c2ccccc12', 'OVCAR-4 ovarian', 88),
  ('CCOC(=O)c1cn2ncnc(Oc3ccc(NC(=O)NC4CC4)c(F)c3)c2c1C', 'OVCAR-4 ovarian', 69.7),
  ('O=C(CCCCl)NNc1nccc(Nc2ccc(S(=O)(=O)Nc3ccncc3)cc2)n1', 'OVCAR-4 ovarian', 101),
  ('C[Se]C(=O)CC1=C2C=C(F)C=CC2/C(=C\c2ccc(S(C)=O)cc2)C1C (stereo not drawn)', 'OVCAR-4 ovarian', 26.7),
  ('CC1=NN(c2ccc(Cl)cc2)CC1(C)N=O (stereo not drawn)', 'OVCAR-4 ovarian', 77.3),
  ('Cn1cc(C(=O)c2nc(-c3c[nH]c4ccc(Br)cc34)no2)c2cc(Br)ccc21', 'OVCAR-4 ovarian', -0.341),
  ('O=C1/C(=C/c2ccc(C(F)(F)F)cc2)COc2ccc(O)c(O)c21', 'OVCAR-4 ovarian', 24.8),
  ('COc1ccc(Cl)cc1Nc1nc(C(F)(F)F)ccc1C(=O)N/N=C/c1ccccc1Cl', 'OVCAR-4 ovarian', -18.3);

###

# System: SF-268 CNS
# EXPERIMENT_SUMMARY: NCI-60 one-dose screen, 48 h (100 = growth as untreated, 0 = no growth, -100 = all killed)
# CONDITION_INFO: 10 µM unless noted
Compounds without any hit were thinned out: in the full panel of roughly 83,000, 20% have a hit.
A collection of molecules and their measured growth
MEASURE: growth (%)

INSERT INTO assay_data (query_smiles, measure, obs_value) VALUES
  ('COC1=CC(c2ccc[nH]2)=N/C1=C\c1[nH]c(C)c(CC(=O)OCc2ccccc2)c1C', 'growth', 9.87),
  ('COP(=O)(OC)c1nnn(-c2cccc([N+](=O)[O-])c2)c1C', 'growth', 98.2),
  ('Nc1c(C(=O)Nc2cccc3ncccc23)sc2nc3c(cc12)C(=O)CCC3', 'growth', 71),
  ('N#Cc1c(-c2ccccc2)cc(-c2ccccc2)n(CCCC(=O)NO)c1=O', 'growth', 37.3),
  ('N#Cc1c(Nc2ccc(F)cc2)n[nH]c1-c1cccs1', 'growth', 98);

Values were extracted from PubChem BioAssay (NCI).
